# Tested on: U-87 MG
# TEST PROTOCOL: Cytotoxicity against human U87 cells assessed as cell viability at 5 uM after 72 hrs by MTT assay relative to control
# Format: functional, U-87MG ATCC
# RECORDED CONDITIONS: read-out: Activity
Could you please mark Condition met for values of viability at 5 µM below 40% and Condition not met for values at or above it?

// below: answered molecules
MOLECULE: CC(=O)O[C@H]1C[C@@]2(C)[C@@H](C[C@@H](O)[C@H]3[C@@]4(C)CC[C@@H](OC(=O)[C@@H](N)CCCCN)[C@@H](C)[C@@H]4CC[C@@]32C)/C1=C(\CCC=C(C)C)C(=O)OCc1ccccc1
CLASS NAME: Condition met
--
MOLECULE: CC(=O)O[C@H]1C[C@@]2(C)[C@@H](C[C@@H](O)[C@H]3[C@@]4(C)CC[C@@H](OC(=O)CCCN)[C@@H](C)[C@@H]4CC[C@@]32C)/C1=C(\CCC=C(C)C)C(=O)OCc1ccccc1
CLASS NAME: Condition met
--
MOLECULE: CC(=O)O[C@H]1C[C@@]2(C)[C@@H](C[C@@H](O)[C@H]3[C@@]4(C)CC[C@@H](OC(=O)c5ccccc5C(=O)O)[C@@H](C)[C@@H]4CC[C@@]32C)/C1=C(\CCC=C(C)C)C(=O)OCc1ccccc1
CLASS NAME: Condition not met
--
MOLECULE: CC(=O)O[C@H]1C[C@@]2(C)[C@@H](C[C@@H](O)[C@H]3[C@@]4(C)CC[C@@H](OC(=O)CCC(=O)n5cccn5)[C@@H](C)[C@@H]4CC[C@@]32C)/C1=C(\CCC=C(C)C)C(=O)OCc1ccccc1
CLASS NAME: Condition not met
--
MOLECULE: CC(=O)O[C@H]1C[C@@]2(C)[C@@H](C[C@@H](O)[C@H]3[C@@]4(C)CC[C@@H](OC(=O)c5ccccc5C(=O)n5ccnc5)[C@@H](C)[C@@H]4CC[C@@]32C)/C1=C(\CCC=C(C)C)C(=O)OCc1ccccc1
CLASS NAME: Condition not met
--
MOLECULE: CC(=O)O[C@H]1C[C@@]2(C)[C@@H](C[C@@H](O)[C@H]3[C@@]4(C)CC[C@@H](OC(=O)c5ccccc5C(=O)n5cccn5)[C@@H](C)[C@@H]4CC[C@@]32C)/C1=C(\CCC=C(C)C)C(=O)OCc1ccccc1
CLASS NAME: Condition not met
--
MOLECULE: CC(=O)O[C@H]1C[C@@]2(C)[C@@H](C[C@@H](O)[C@H]3[C@@]4(C)CC[C@@H](OC(=O)C(C)N)[C@@H](C)[C@@H]4CC[C@@]32C)/C1=C(\CCC=C(C)C)C(=O)OCc1ccccc1 (stereo not given in full)
CLASS NAME: Condition met
--
MOLECULE: CC(=O)O[C@H]1C[C@@]2(C)[C@@H](C[C@@H](O)[C@H]3[C@@]4(C)CC[C@@H](OC(=O)CCC(=O)N5CCOCC5)[C@@H](C)[C@@H]4CC[C@@]32C)/C1=C(\CCC=C(C)C)C(=O)OCc1ccccc1
CLASS NAME: Condition not met

viability at 5 µM strictly < 40% for this molecule? CC(=O)O[C@H]1C[C@@]2(C)[C@@H](C[C@@H](O)[C@H]3[C@@]4(C)CC[C@@H](OC(=O)c5nccnc5C(=O)O)[C@@H](C)[C@@H]4CC[C@@]32C)/C1=C(\CCC=C(C)C)C(=O)OCc1ccccc1
Condition not met

Take the molecule CC(=O)O[C@H]1C[C@@]2(C)[C@@H](C[C@@H](O)[C@H]3[C@@]4(C)CC[C@@H](OC(=O)CCCCCCCN)[C@@H](C)[C@@H]4CC[C@@]32C)/C1=C(\CCC=C(C)C)C(=O)OCc1ccccc1 and say whether its viability at 5 µM is less than 40%.
Condition met

Hello, I'm reviewing records and need to know if viability at 5 µM of CC(=O)O[C@H]1C[C@@]2(C)[C@@H](C[C@@H](O)[C@H]3[C@@]4(C)CC[C@@H](OC(=O)c5ccccc5C(=O)N5CCN(C)CC5)[C@@H](C)[C@@H]4CC[C@@]32C)/C1=C(\CCC=C(C)C)C(=O)OCc1ccccc1 is below 40%. Could you check?
Condition not met

A record lists CC(=O)O[C@H]1C[C@@]2(C)[C@@H](C[C@@H](O)[C@H]3[C@@]4(C)CC[C@@H](OC(=O)CCN)[C@@H](C)[C@@H]4CC[C@@]32C)/C1=C(\CCC=C(C)C)C(=O)OCc1ccccc1 . Is its viability at 5 µM below 40%?
Condition met

Would you kindly verify if viability at 5 µM of CC(=O)O[C@H]1C[C@@]2(C)[C@@H](C[C@@H](O)[C@H]3[C@@]4(C)CC[C@@H](OC(=O)CCCCCCCCCCN)[C@@H](C)[C@@H]4CC[C@@]32C)/C1=C(\CCC=C(C)C)C(=O)OCc1ccccc1 is strictly less than 40%?
Condition met

Confirm or reject: viability at 5 µM of CC(=O)O[C@H]1C[C@@]2(C)[C@@H](C[C@@H](O)[C@H]3[C@@]4(C)CC[C@@H](OC(=O)CCC(=O)O)[C@@H](C)[C@@H]4CC[C@@]32C)/C1=C(\CCC=C(C)C)C(=O)OCc1ccccc1 lies strictly below 40%
Condition not met

----------
# Tested on: U-87 MG
# TEST PROTOCOL: Cytotoxicity against human U87 cells assessed as cell viability at 5 uM after 72 hrs by MTT assay relative to control
# Type: functional, U-87MG ATCC
# RECORDED CONDITIONS: read-out: Activity
READOUT: viability at 5 µM (%)
Field format: number, assumed %, no unit text.

MOLECULE: CC(=O)O[C@H]1C[C@@]2(C)[C@@H](C[C@@H](O)[C@H]3[C@@]4(C)CC[C@@H](O)[C@@H](C)[C@@H]4CC[C@@]32C)/C1=C(\CCC=C(C)C)C(=O)O
TARGET OR SYSTEM: U-87 MG
UNIT OF MEASURE: %
viability at 5 µM: 87
//
MOLECULE: CC(=O)O[C@H]1C[C@@]2(C)[C@@H](C[C@@H](O)[C@H]3[C@@]4(C)CC[C@@H](OC(=O)C(N)CC(C)C)[C@@H](C)[C@@H]4CC[C@@]32C)/C1=C(\CCC=C(C)C)C(=O)OCc1ccccc1 (some centres undefined)
TARGET OR SYSTEM: U-87 MG
UNIT OF MEASURE: %
viability at 5 µM: 111
//
MOLECULE: CC(=O)O[C@H]1C[C@@]2(C)[C@@H](C[C@@H](O)[C@H]3[C@@]4(C)CC[C@@H](OC(=O)CCC(=O)N5CCN(C)CC5)[C@@H](C)[C@@H]4CC[C@@]32C)/C1=C(\CCC=C(C)C)C(=O)OCc1ccccc1
TARGET OR SYSTEM: U-87 MG
UNIT OF MEASURE: %
viability at 5 µM: 88

Now look at this one.
I would be grateful if you could share the reported viability at 5 µM for CC(=O)O[C@H]1C[C@@]2(C)[C@@H](C[C@@H](O)[C@H]3[C@@]4(C)CC[C@@H](OC(=O)c5ccccc5C(=O)N5CCOCC5)[C@@H](C)[C@@H]4CC[C@@]32C)/C1=C(\CCC=C(C)C)C(=O)OCc1ccccc1 .
77

----------
Below, each of the molecules is paired with its reported viability at 1.5 µM value.
# Tested on: MKN-45
# TEST PROTOCOL: Cytotoxicity against human MKN45 cells assessed as cell viability at 1.5 uM after 72 hrs by MTT assay relative to control
# Type: functional
# RECORDED CONDITIONS: MKN-45, 72 h, read-out: Activity
Write the answer as a number in %, unit excluded.

MOLECULE: CC(=O)O[C@H]1C[C@@]2(C)[C@@H](C[C@@H](O)[C@H]3[C@@]4(C)CC[C@@H](O)[C@@H](C)[C@@H]4CC[C@@]32C)/C1=C(\CCC=C(C)C)C(=O)O [FUSIDIC ACID]
UNIT OF MEASURE: %
viability at 1.5 µM: 80

MOLECULE: CC(=O)O[C@H]1C[C@@]2(C)[C@@H](C[C@@H](O)[C@H]3[C@@]4(C)CC[C@@H](OC(=O)CN)[C@@H](C)[C@@H]4CC[C@@]32C)/C1=C(\CCC=C(C)C)C(=O)OCc1ccccc1
UNIT OF MEASURE: %
viability at 1.5 µM: 95

Okay, next one:
Fill in: viability at 1.5 µM of CC(=O)O[C@H]1C[C@@]2(C)[C@@H](C[C@@H](O)[C@H]3[C@@]4(C)CC[C@@H](OC(=O)c5ccccc5C(=O)n5ccnc5)[C@@H](C)[C@@H]4CC[C@@]32C)/C1=C(\CCC=C(C)C)C(=O)OCc1ccccc1 is ___
103

----------
# Test system: MKN-45
# TEST PROTOCOL: Cytotoxicity against human MKN45 cells assessed as cell viability at 1.5 uM after 72 hrs by MTT assay relative to control
# Assay type: functional
# RECORDED CONDITIONS: MKN-45, 72 h, read-out: Activity
READOUT: viability at 1.5 µM (%)
Reply with just the number (in %).

Known results for compounds:
COMPOUND: CC(=O)O[C@H]1C[C@@]2(C)[C@@H](C[C@@H](O)[C@H]3[C@@]4(C)CC[C@@H](OC(=O)CCCCCCCCCCN)[C@@H](C)[C@@H]4CC[C@@]32C)/C1=C(\CCC=C(C)C)C(=O)OCc1ccccc1
TARGET OR SYSTEM: MKN-45
viability at 1.5 µM (%): 96
--
COMPOUND: CC(=O)O[C@H]1C[C@@]2(C)[C@@H](C[C@@H](O)[C@H]3[C@@]4(C)CC[C@@H](OC(=O)CCCN)[C@@H](C)[C@@H]4CC[C@@]32C)/C1=C(\CCC=C(C)C)C(=O)OCc1ccccc1
TARGET OR SYSTEM: MKN-45
viability at 1.5 µM (%): 90

Which viability at 1.5 µM value belongs to CC(=O)O[C@H]1C[C@@]2(C)[C@@H](C[C@@H](O)[C@H]3[C@@]4(C)CC[C@@H](OC(=O)C(C)N)[C@@H](C)[C@@H]4CC[C@@]32C)/C1=C(\CCC=C(C)C)C(=O)OCc1ccccc1 (stereo partly drawn) ?
96
